The measured values listed here are drawn from patent US20190367619A1.

# targetOfAssay: T1, cynomolgus galectin-10-His, WGS isoform (cynomolgus)
# T1 construct: also called cynoGal10-WGS; not shown: His tag
# T1 chain: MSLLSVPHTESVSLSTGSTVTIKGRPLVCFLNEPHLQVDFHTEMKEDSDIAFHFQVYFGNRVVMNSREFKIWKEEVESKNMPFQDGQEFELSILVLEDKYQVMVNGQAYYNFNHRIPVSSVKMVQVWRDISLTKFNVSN
# procedureText: SPR Biacore T3000, scFv-human Fc captured
metric: pKd
Interpret pKd as the negative base-10 log of the concentration measured in mol/L.

The measured pKd associated with 11F02 scFv-human Fc (Fc fusion, also called 011F02; not shown: CH2-CH3 constant domains of human IgG1 (pUPEX50 scFv-Fc fusion vector)) scFv: ELQVVESGGGLVQPGGSLRLSCAASGFTFSTNYMNWVRQAPGKGLEWVSGITSHGARTYYADSVKGRFTISRDNSKNTLYLQMNSLKPEDTALYYCARTDHASLDAWGQGTLVTVSSGGGGSGGGGSGGGGSQTVVTQEPSLSVSPGGTVTLTCGLSSGSVTSSNYPGWYQQKPGQAPRTLIYNTNSRYSGVPNRFSGSISGNKAALTITGAQPEDEADYYCALYMGSSSYNTVFGGGTHLTVL reads 8.10

The measured pKd associated with 10D02 scFv-human Fc (Fc fusion, also called 010D02; not shown: CH2-CH3 constant domains of human IgG1 (pUPEX50 scFv-Fc fusion vector)) scFv: EVQLVESGGGLVQPGGSLRVSCAASGFTFSSYYMSWVRQAPGKGLEWVSGIVTGGGRTHYTDSVKGRFTITRDNAKNTLYLQMNSLRPEDTALYYCARVNGVVTNYDYWGQGTQVTVSSGGGGSGGGGSGGGGSQAVLTQPPSVSGSPGKTVTISCAGTSSDVGYGNYVSWYQQLPGMAPKLLIYDVNKRASGITDRFSGSKSGNTASLTISGLQSEDEADYFCASYRSPNNVVFGQGTHLTVL reads 8.57

The measured pKd associated with 10B02 scFv-human Fc (Fc fusion, also called 010B02; not shown: CH2-CH3 constant domains of human IgG1 (pUPEX50 scFv-Fc fusion vector)) scFv: QVQLVESGGGLVQPGGSLRVSCAASGFTFSYHYMNWVRQAPGKGLEWVSGISAGGGRTYYADSVKGRFTISRDNAKNTLYLQMNSLNAEDTALYYCARVHGITNDYWGQGTQVTVSSGGGGSGGGGSGGGGSQSALTQPPSVSGSPGKTVTISCAGTSSDVGYGNYVSWYQQLPGMAPKLLIYEVNKRASGITDRFSGSKSGNTAFLTISGLQSEDEADYYCASYRNSNNWVFGGGTHLTVL reads 9.00

The measured pKd associated with 7B07 scFv-human Fc (Fc fusion, also called 007B07; not shown: CH2-CH3 constant domains of human IgG1 (pUPEX50 scFv-Fc fusion vector)) scFv: QVQLVESGGGLVQPGGSLRLSCAASGFTFRSYDMSWVRQAPGKGPEWVSAIKNGGGITYYADSVKGRFTISRDNAKNTLYLQMNSLKPEDTAVYYCATTHGIGTLGFGSWGQGTQVTVSSGGGGSGGGGSGGGGSSYELTQSASVSVALTQTAKITCDGNNIGSKSAQWYQQKPGQAPALVIYADEYRPEGIPERFSGSNSGNTATLIISGAQAEDEADYYCQVWDGSAAVFGRGTHLTVL reads 8.82

The measured pKd associated with 8H11 scFv-human Fc (Fc fusion, also called 008H11; not shown: CH2-CH3 constant domains of human IgG1 (pUPEX50 scFv-Fc fusion vector)) scFv: ELQLVESGGGLVQPGGSLRLSCAASGFTFSTNYMNWVRQAPGKGLEWVSGITSGGGRTYYADSVKGRFTISRDNAKNTLYLQMNSLKPEDTALYYCARTDHAWLDAWGQGTLVTVSSGGGGSGGGGSGGGGSQAGLTQPPSVSGTLGKTVTISCAGTSSDVGYGNYVSWYQQLPGTAPKLLIYAVSTRASGIPDRFSGSKSGNTASLTISGLLSEDEADYYCASYRSSNNYVFGGGTKLTVL reads 9.05
